The reported numbers originate from patent US20210380703A1.

Give measured optical density for each item. Keep answers brief.
# Target Or System: Mouse ACVR2A (mouse, UniProt P27038 20-135, limits assumed); further: test concentration or dose not given here
# Sequence (P27038 20-135 limits assumed): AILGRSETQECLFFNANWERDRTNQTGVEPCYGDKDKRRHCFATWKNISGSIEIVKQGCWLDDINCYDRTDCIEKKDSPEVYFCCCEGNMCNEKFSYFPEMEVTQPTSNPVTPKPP
# Method Description: ELISA
One number for each entry, in OD.

>>> measurement("370_C06 (antibody, V domains shown, VH/VL only) VH: EVQLLESGGGLVQPGGSLRLSCAASGFTFSSYSMNWVRQAPGKGLEWVANINYNGGYKSYADSVKGRFTISRDNSKNTLYLQMNSLRAEDTAVYYCARGATWHDTHLDYWGQGTLVTVSS VL: DIQMTQSPSSLSASVGDRVTITCRASQSILTYVNWYQQKPGKAPKLLIYAASSLQSGVPSRFSGSGSGTDFTLTISSLQPEDFATYYCQQSYSTPLTFGGGTKVEIK")
3.41

In the following, a different binder is considered.
**Query** Which optical density is reported for this binder? 365_E05 (antibody, V domains shown, VH/VL only) VH: EVQLLESGGGLVQPGGSLRLSCAASGFTFSSYGMHWVRQAPGKGLEWVAGINYNGGYTSYADSVKGRFTISRDNSKNTLYLQMNSLRAEDTAVYYCARSANWHDTALDYWGQGTLVTVSS VL: DIQMTQSPSSLSASVGDRVTITCRASQSIVSYVNWYQQKPGKAPKLLIYAATSLASGVPSRFSGSGSGTDFTLTISSLQPEDFATYYCQQSYDNPLTFGGGTKVEIK
**Result** 2.44
